# testTarget: recombinant human PDE5 (Homo sapiens, UniProt O76074)
# assayInfo: Inhibitory effect on cGMP-PDE, one-step assay, human recombinant PDE5
# reportedConditions: Table 1, Examples
readout: IC50 (µM)

Solved entries (count: 6):
CNC(=O)[C@H]1Cc2c([nH]c3ccccc23)[C@@H](c2ccc3c(c2)OCO3)N1C(=O)/C=C/c1ccc(Cl)cc1    0.42
CCCNC(=O)[C@H]1Cc2c([nH]c3ccccc23)[C@@H](c2ccc3c(c2)OCO3)N1C(C)=O    0.502
CC(=O)N1[C@H](c2ccc3c(c2)OCO3)c2[nH]c3ccccc3c2C[C@@H]1C(=O)N1CCOCC1    0.261
CNC(=O)[C@H]1Cc2c([nH]c3ccccc23)[C@@H](c2ccc3c(c2)OCO3)N1C(=O)/C=C/c1ccccc1    0.03
COC(=O)[C@@H]1Cc2c([nH]c3ccccc23)[C@H](c2ccc3c(c2)OCO3)N1C    0.23
COC(=O)[C@H]1Cc2c([nH]c3ccccc23)[C@@H](c2ccc3c(c2)OCO3)N1C(=O)Oc1ccc([N+](=O)[O-])cc1    0.241

A = CN(C)C(=O)[C@H]1Cc2c([nH]c3ccccc23)[C@@H](c2ccc3c(c2)OCO3)N1C(=O)/C=C/c1ccccc1
B = CCCCNC(=O)[C@H]1Cc2c([nH]c3ccccc23)[C@@H](c2ccc3c(c2)OCO3)N1C(=O)/C=C/c1ccccc1
QUERY: // max by IC50 over [ A , B ] Pick one and reply with its label.
RESULT: B

====

readout: melting point

Solved entries (count: 3):
COC(=O)[C@H]1Cc2c([nH]c3ccccc23)[C@@H](c2ccc3c(c2)OCO3)N1C(=O)Oc1ccc([N+](=O)[O-])cc1    175 to 187 °C
CCCNC(=O)[C@H]1Cc2c([nH]c3ccccc23)[C@@H](c2ccc3c(c2)OCO3)N1C(C)=O    163 to 165 °C
CN(C)C(=O)[C@H]1Cc2c([nH]c3ccccc23)[C@@H](c2ccc3c(c2)OCO3)N1C(=O)/C=C/c1ccccc1    175 to 178 °C

QUERY: Which value of melting point has been reported for CCCCNC(=O)[C@H]1Cc2c([nH]c3ccccc23)[C@@H](c2ccc3c(c2)OCO3)N1C(=O)/C=C/c1ccccc1 in the records?
RESULT: 114 to 117 °C
